System: PfAP2-HC AP2 domain (GST-tagged)
Test: gcPBM binding intensity (ln(normalized median fluorescence intensity)); higher = stronger DNA binding
Over roughly 25,000 sequences, “ln(normalized median fluorescence intensity)” has its median near 9.7; the highest 2% begin near 11. The list comes from a sample in which the highest values are over-represented; it also holds close analogues and randomly drawn sequences.
Below, each of the sequences is paired with its reported gcPBM binding intensity (ln) value.
// keep it numeric: no unit symbol after the value

Sample records with gcPBM binding intensity (ln):
{"sequence.text": "CATACAGATATATATACACACATACAGATAAATACA [CACACA_site4592]", "reported": 9.95}
{"sequence.text": "AAAACTATAAAAATTTTACACACTGTTTTTAAATAA [CACACA_site3667]", "reported": 9.57}
{"sequence.text": "AAATTATTTCCGTGTACACATAAATATATATTTTAT [CACACA_site5121]", "reported": 9.89}
{"sequence.text": "TATACAGATAAATACACACACACATATATATATATA [CACACA_site4845]", "reported": 11.2}
{"sequence.text": "AATGGAAAATTATTAACACACACATATAAATATATA [CACACA_site7899]", "reported": 10.1}

Entry TACATACACAGACACACACACATATATATATATATA [CACACA_site3557] ; gcPBM binding intensity (ln) = 10.9

Data point: CAAAGATATATAAACACACAAATATAACATATATAC [CACACA_site7395] ; gcPBM binding intensity (ln) = 9.99

Record TACACATACAGACATACACACATACACATATACACA [CACACA_site6918] , field gcPBM binding intensity (ln): 10.5

gcPBM binding intensity (ln) reading for AACGAAGCATAAAATGTTATGTATATATATAAATAT [TGCATGCA_negctrl_site304] : 9.79

Form: sequence = TATACAGATAAATACACACACATATATATATATATA [CACACA_site4178] ; gcPBM binding intensity (ln) = 9.86

Looking up TTGTTAGAGTATATTGAAAGGATAACCTTTTTTTAT [XGTACX_negctrl_site122] , I see its gcPBM binding intensity (ln) listed as 9.43

gcPBM binding intensity (ln) reading for ATATATATATAATAAACACACACATATACATATATG [CACACA_site9145] : 10.5

The recorded gcPBM binding intensity (ln) for GATGATACGATTATCACACATTTATACTTTCTACAT [CACACA_site5669] is 9.85

Measured gcPBM binding intensity (ln), AATATATGTATATCCACACACATATATATATATATA [CACACA_site1633] : 9.96

Field gcPBM binding intensity (ln) (entry AGTAAGAGGCATTAAGCATGCATATTATTATAAGCA [TGCATGCA_site237] ) reads 9.85

====

System: PfAP2-HC AP2 domain (GST-tagged)
Assay: gcPBM binding intensity (ln(normalized median fluorescence intensity)); higher = stronger DNA binding
Whole data set: some 25,000 sequences, median “ln(normalized median fluorescence intensity)” near 9.7, cut for the highest 2% near 11. The sample holds the highest values, similar sequences and a random draw of the others, so the mix is not that of the screen.
parameter: gcPBM binding intensity (ln)
Number only, no unit.

# annotated cases, reported gcPBM binding intensity (ln) shown
{"sequence.text": "CACGCGCACCAACACACACACACACCCATATATATA [CACACA_site2204]", "reported": 11.1}
{"sequence.text": "GATAATTACGGACACACACACACACGCACAACTAAA [CACACA_site7254]", "reported": 10.7}
{"sequence.text": "AAAAGATAATTATGCACACACACACCCCCACCCAAC [CACACA_site2570]", "reported": 10.9}
{"sequence.text": "CACACCACCAACAAAAGTACATACATATATATATAT [XGTACX_site5781]", "reported": 9.82}

The sequence listed as TATAAACACCCATATAAACACACATATAAACCAACA [CACACA_site8790] shows gcPBM binding intensity (ln) equal to 10

Summary for this sequence, CATACTCACCAACACACACACACACCCATATAGAAT [CACACA_site592] : gcPBM binding intensity (ln) is 11.1

Record ACCATACATACATACACACACACACCCATATATATA [CACACA_site2917] . Reported gcPBM binding intensity (ln): 10.6

The sequence GACACCCATAAATATACACACGCACAACACAAAATA [CACACA_site8944] showed gcPBM binding intensity (ln) equal to 9.98

Form field gcPBM binding intensity (ln), entry CACACCCACCAACACACACACACACCCACCCATATA [CACACA_site366] : 11
